- test: Acid dissociation constant
- Assay type: ADME
observed property: pKa
Number only, no unit.

As a guide, the following entries are already answered.
>>> df
                           smiles_structure  observed_property  reading
0           Nc1ccc(S(=O)(=O)Nc2ncccc2Cl)cc1                pKa      6.8
1        Cc1cc(Cl)cnc1NS(=O)(=O)c1ccc(N)cc1                pKa     7.26
2  Nc1ccc(S(=O)(=O)Nc2ccc([N+](=O)[O-])cn2)cc1                pKa     5.56
3         Nc1ccc(S(=O)(=O)Nc2ccc(Br)cn2)cc1                pKa     6.98
4         Nc1ccc(S(=O)(=O)Nc2ccc(Cl)cn2)cc1                pKa     7.04
5       Nc1ccc(S(=O)(=O)Nc2ncc(Cl)cc2Cl)cc1                pKa     5.98
6          Cc1ccnc(NS(=O)(=O)c2ccc(N)cc2)c1                pKa     9.01
7       Nc1ccc(S(=O)(=O)Nc2ncc(Br)cc2Br)cc1                pKa     5.78

Query block: Please list pKa recorded for the compound Nc1ccc(S(=O)(=O)Nc2ccccn2)cc1
Result block: 8.54

Query block: Please list pKa recorded for the compound CCOc1cccnc1NS(=O)(=O)c1ccc(N)cc1
Result block: 8.2

Query block: Please list pKa recorded for the compound Cc1cccc(NS(=O)(=O)c2ccc(N)cc2)n1
Result block: 9.2

Query block: Please list pKa recorded for the compound Cc1cccnc1NS(=O)(=O)c1ccc(N)cc1
Result block: 8.74

###

This section presents compounds with their documented k el values.
- test: First order rate of elimination of unchanged drug in rat
- Assay type: ADME, organism-based
- test context: in vivo, read-out: kC,U (converted)

As a guide, the following entries are already answered.
In [3]: df
Out[3]:
                                   compound       reading
0  Nc1ccc(S(=O)(=O)Nc2ccccn2)cc1 [SULFAPYRIDINE]  9.72e-05 s⁻¹
1       Nc1ccc(S(=O)(=O)Nc2ncc(Br)cc2Br)cc1  5.56e-06 s⁻¹
2      CN(C)c1ccc(NS(=O)(=O)c2ccc(N)cc2)nc1  6.39e-05 s⁻¹
3         Nc1ccc(S(=O)(=O)Nc2ccc(Cl)cn2)cc1  5.56e-06 s⁻¹

Query block: Please list k el recorded for the compound Nc1ccc(S(=O)(=O)Nc2ccc(Br)cn2)cc1
Result block: 2.78e-06 s⁻¹

Query block: Please list k el recorded for the compound Nc1ccc(S(=O)(=O)Nc2ncc(Cl)cc2Cl)cc1
Result block: 8.33e-06 s⁻¹

Query block: Please list k el recorded for the compound Cc1cc(C)nc(NS(=O)(=O)c2ccc(N)cc2)c1
Result block: 0.000117 s⁻¹

###

This section presents molecules with their documented Vc values.
- Species on record: Rattus norvegicus
- test: Apparent volume of distribution was determined in rat
- Assay type: ADME, organism-based
- test context: in vivo
Just the number in mL, nothing appended.

As a guide, the following entries are already answered.
                      smiles_structure  reading
0  Cc1cc(C)nc(NS(=O)(=O)c2ccc(N)cc2)c1      183
1  Nc1ccc(S(=O)(=O)Nc2ncc(Br)cc2Br)cc1     90.3
2    Nc1ccc(S(=O)(=O)Nc2ccc(Br)cn2)cc1    247.1
3        Nc1ccc(S(=O)(=O)Nc2ccccn2)cc1      229
4  Nc1ccc(S(=O)(=O)Nc2ncc(Cl)cc2Cl)cc1     99.2

Query block: Please list Vc recorded for the molecule Cc1ccc(NS(=O)(=O)c2ccc(N)cc2)nc1
Result block: 234

Query block: Please list Vc recorded for the molecule Cc1cc(Cl)cnc1NS(=O)(=O)c1ccc(N)cc1
Result block: 137.9

Query block: Please list Vc recorded for the molecule Cc1cc(Br)cnc1NS(=O)(=O)c1ccc(N)cc1
Result block: 142.6

Query block: Please list Vc recorded for the molecule Cc1cccnc1NS(=O)(=O)c1ccc(N)cc1
Result block: 131

Query block: Please list Vc recorded for the molecule Cc1cccc(NS(=O)(=O)c2ccc(N)cc2)n1
Result block: 168.6

Query block: Please list Vc recorded for the molecule Cc1cnc(NS(=O)(=O)c2ccc(N)cc2)c(C#N)c1
Result block: 89.7

Query block: Please list Vc recorded for the molecule Nc1ccc(S(=O)(=O)Nc2ncccc2Cl)cc1
Result block: 147.5

Query block: Please list Vc recorded for the molecule Nc1ccc(S(=O)(=O)Nc2ccc(Cl)cn2)cc1
Result block: 185.5

###

- Species: Rattus norvegicus
- test: Affinity for protein binding expressed as association constant in fresh rat serum
- Assay type: ADME, organism-based
This section presents molecules with their documented K ass values.

In [3]: df
Out[3]:
                  smiles_structure      reading
0  Nc1ccc(S(=O)(=O)Nc2ncccc2Cl)cc1  13441 l M-1

Query block: Please list K ass recorded for the molecule COc1cccnc1NS(=O)(=O)c1ccc(N)cc1
Result block: 2399 l M-1

###

- test: Renal clearance from the body in rat
- Assay type: ADME, organism-based, Kidney
- test context: in vivo, read-out: CL_renal
Decision: CL renal compared against 0.4 mL/min; not below it gives criterion met, below it gives criterion not met.

Below, 3 compounds whose answers are already recorded.
                                   compound        group_label
0  Nc1ccc(S(=O)(=O)Nc2ccccn2)cc1 [SULFAPYRIDINE]      criterion met
1         Nc1ccc(S(=O)(=O)Nc2ccc(Br)cn2)cc1  criterion not met
2      CN(C)c1ccc(NS(=O)(=O)c2ccc(N)cc2)nc1      criterion met

Query block: Check this compound for CL renal at or above 0.4 mL/min: Cc1cc(C)nc(NS(=O)(=O)c2ccc(N)cc2)c1
Result block: criterion met

Query block: Check this compound for CL renal at or above 0.4 mL/min: Nc1ccc(S(=O)(=O)Nc2ccc(Cl)cn2)cc1
Result block: criterion not met

Query block: Check this compound for CL renal at or above 0.4 mL/min: Nc1ccc(S(=O)(=O)Nc2ncc(Cl)cc2Cl)cc1
Result block: criterion not met

###

- test: Half life in rat
- Assay type: ADME, organism-based
- test context: in vivo
Decision: half-life compared against 2 h; not below it gives yes (1), below it gives no (0).

In [3]: df
Out[3]:
                        smiles_structure  group_label
0  Cc1cnc(NS(=O)(=O)c2ccc(N)cc2)c(C#N)c1      yes (1)
1    Nc1ccc(S(=O)(=O)Nc2ncc(Cl)cc2Cl)cc1      yes (1)
2     Cc1cc(Br)cnc1NS(=O)(=O)c1ccc(N)cc1      yes (1)
3       CCOc1cccnc1NS(=O)(=O)c1ccc(N)cc1       no (0)
4     Cc1cc(Cl)cnc1NS(=O)(=O)c1ccc(N)cc1      yes (1)
5       Cc1ccnc(NS(=O)(=O)c2ccc(N)cc2)c1       no (0)

Query block: Check this compound for half-life at or above 2 h: COc1cccnc1NS(=O)(=O)c1ccc(N)cc1
Result block: no (0)

Query block: Check this compound for half-life at or above 2 h: Cc1cccnc1NS(=O)(=O)c1ccc(N)cc1
Result block: no (0)

Query block: Check this compound for half-life at or above 2 h: N#Cc1cccnc1NS(=O)(=O)c1ccc(N)cc1
Result block: no (0)

Query block: Check this compound for half-life at or above 2 h: Nc1ccc(S(=O)(=O)Nc2ccc(Br)cn2)cc1
Result block: yes (1)

Query block: Check this compound for half-life at or above 2 h: Nc1ccc(S(=O)(=O)Nc2ncccc2Cl)cc1
Result block: yes (1)

Query block: Check this compound for half-life at or above 2 h: Nc1ccc(S(=O)(=O)Nc2ccc([N+](=O)[O-])cn2)cc1
Result block: yes (1)

###

- test: Half life in rat
- Type: ADME, organism-based
- test context: in vivo
Exam item: assign 1 to entries whose half-life is below 2 h and 0 to entries at or above 2 h. Note that a value of exactly 2 h receives 0.

Below, 5 molecules whose answers are already recorded.
In [3]: df
Out[3]:
                       smiles_structure  group_label
0     Nc1ccc(S(=O)(=O)Nc2ccc(Cl)cn2)cc1            0
1         Nc1ccc(S(=O)(=O)Nc2ccccn2)cc1            1
2      Cc1ccc(NS(=O)(=O)c2ccc(N)cc2)nc1            0
3  CN(C)c1ccc(NS(=O)(=O)c2ccc(N)cc2)nc1            0
4   Cc1cc(C)nc(NS(=O)(=O)c2ccc(N)cc2)c1            1

Would you kindly look at the next entry?
Query block: Here's an entry: Nc1ccc(S(=O)(=O)Nc2ncc(Br)cc2Br)cc1 . Is its half-life below 2 h?
Result block: 0

Data provenance: ChEMBL document CHEMBL1121446
